# test-system: T1, human DLL3 on cells (human, UniProt Q9NYJ7 27-618)
# T1 construct: Endogenous on H1184 and SHP77; Cell line is named under assay; also called H1184; DLL3/H82
# T1 sequence: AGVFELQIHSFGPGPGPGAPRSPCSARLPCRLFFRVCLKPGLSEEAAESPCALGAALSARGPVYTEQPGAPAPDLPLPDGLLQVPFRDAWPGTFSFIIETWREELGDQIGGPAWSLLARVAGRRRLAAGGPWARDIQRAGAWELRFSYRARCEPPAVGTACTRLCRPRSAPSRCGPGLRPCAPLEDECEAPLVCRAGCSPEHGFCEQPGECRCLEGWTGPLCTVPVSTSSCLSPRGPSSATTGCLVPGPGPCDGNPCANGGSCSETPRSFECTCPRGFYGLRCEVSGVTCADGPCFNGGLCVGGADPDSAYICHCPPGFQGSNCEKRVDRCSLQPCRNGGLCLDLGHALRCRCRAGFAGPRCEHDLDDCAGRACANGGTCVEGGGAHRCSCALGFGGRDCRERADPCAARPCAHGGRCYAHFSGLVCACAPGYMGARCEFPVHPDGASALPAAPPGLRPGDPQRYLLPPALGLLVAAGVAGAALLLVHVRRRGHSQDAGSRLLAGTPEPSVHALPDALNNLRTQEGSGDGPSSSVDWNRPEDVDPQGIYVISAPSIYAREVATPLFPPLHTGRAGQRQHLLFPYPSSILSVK
# assay-method-text: flow cytometry, DLL3/H82 cells
Task for the reader: assign each of the following binders its reported pEC50.
Please note pEC50 is a logarithmic value: minus log10 of concentration in mol/L. Answer with that number alone.

Which pEC50 is listed for hu110L1H3 (antibody, human IgG1, kappa, V domains shown) VH: EVQLVQSGAEVKKPGASVKVSCKTSGYTFTDYYMNWVRQAPGQSLEWMGIINPYQGGTSYTQKFKGRVTITVDKSASTAYMELSSLRSEDTAVYYCARHFYDSSYLTYSTMDYWGQGTTVTVSS VL: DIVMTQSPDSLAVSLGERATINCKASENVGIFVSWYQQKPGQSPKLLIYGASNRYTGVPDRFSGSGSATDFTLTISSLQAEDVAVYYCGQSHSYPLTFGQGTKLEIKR ?
8.94

Which pEC50 is listed for hu110L2H5 (antibody, human IgG1, kappa, V domains shown) VH: EVQLVQSGAEVKKPGASVKVSCKTSGYTFTDYYMNWVRQAPGQSLEWMGIINPYTGGTSYTQKFKGRVTITVDKSASTAYMELSSLRSEDTAVYYCARHFYDSSYLTYSTMDYWGQGTTVTVSS VL: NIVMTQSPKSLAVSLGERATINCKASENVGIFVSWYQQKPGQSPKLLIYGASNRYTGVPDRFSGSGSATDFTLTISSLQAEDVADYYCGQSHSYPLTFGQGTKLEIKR ?
8.77

Which pEC50 is listed for hu110L2H2 (antibody, human IgG1, kappa, V domains shown) VH: EVQLVQSGAEVKKPGASVKVSCKTSGYTFTDYYMNWVRQAPGQSLEWMGIINPYNGGTSYTQKFKGRVTITVDKSASTAYMELSSLRSEDTAVYYCARHFYDSSYLTYSTMDYWGQGTTVTVSS VL: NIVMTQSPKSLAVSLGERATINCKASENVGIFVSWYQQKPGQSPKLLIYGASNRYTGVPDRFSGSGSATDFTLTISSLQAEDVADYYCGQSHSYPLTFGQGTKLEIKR ?
8.90

The values you see were collected from patent US20250376519A1.
